Molecular target: LgtC (Neisseria meningitidis, UniProt Q93EK7)
Sequence (Q93EK7 whole entry): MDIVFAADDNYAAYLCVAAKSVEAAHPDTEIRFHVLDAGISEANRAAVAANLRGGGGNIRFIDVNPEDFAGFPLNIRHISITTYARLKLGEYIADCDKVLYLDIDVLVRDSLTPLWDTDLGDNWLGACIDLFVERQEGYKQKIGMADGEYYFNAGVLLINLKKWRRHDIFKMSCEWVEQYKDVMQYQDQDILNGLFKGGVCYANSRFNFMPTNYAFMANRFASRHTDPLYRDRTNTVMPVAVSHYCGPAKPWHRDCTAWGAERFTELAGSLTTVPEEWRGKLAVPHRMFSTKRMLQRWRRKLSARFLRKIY
Assay: Inhibition of recombinant Neisseria meningitidis glycosyltransferase LgtC using UDP-Gal/lactose as substrate preincubated for 20 mins with UDP-Gal followed by lactose addition measured after 20 mins in presence of MnCl2
With a cut-off of 20 µM, any Ki strictly below it is called satisfied; any Ki meeting it or above is called not satisfied.

Prompt line: Does this compound meet the criterion Ki < 20 µM? `O=C1/C(=C\c2ccc(OCc3ccccc3)cc2)C(C(F)(F)F)=NN1c1ccccc1`
Response line: satisfied

Prompt line: Decide: Ki of `COc1ccc(/C=C2\C(=O)N(c3ccccc3)N=C2C(F)(F)F)cc1` strictly below 20 µM?
Response line: satisfied

Prompt line: Does this compound meet the criterion Ki < 20 µM? `O=C1/C(=C\c2cccc(Cl)c2)C(C(F)(F)F)=NN1c1ccccc1`
Response line: not satisfied

Prompt line: Bench note: check whether `O=C1/C(=C\c2ccc(O)cc2)C(C(F)(F)F)=NN1c1ccccc1` shows Ki below 20 µM
Response line: satisfied

Prompt line: Lab note: Ki threshold 20 µM. Does this compound come in strictly under it? `O=C1/C(=C\c2ccccc2)C(C(F)(F)F)=NN1c1ccccc1`
Response line: not satisfied

Prompt line: Is 20 µM strictly greater than the compound's reported Ki? compound: `O=C1/C(=C\c2ccc(Cl)cc2)C(C(F)(F)F)=NN1c1ccccc1`
Response line: not satisfied

Prompt line: is_below(Ki, 20 µM) for `O=C1/C(=C\c2cccc(OCc3ccccc3)c2)C(C(F)(F)F)=NN1c1ccccc1` ?
Response line: not satisfied

Prompt line: Ki under 20 µM? Item: `COc1ccc(/C=C2\C(=O)N(c3ccccc3)N=C2C(F)(F)F)cc1Br`
Response line: satisfied

====

Provide the reported inhibition of each item.
Biological target: LgtC (Neisseria meningitidis) (UniProt Q93EK7)
Assay: Inhibition of recombinant Neisseria meningitidis glycosyltransferase LgtC using UDP-Gal/lactose as substrate at 50 uM preincubated for 30 mins with UDP-Gal followed by lactose addition measured after 20 mins in presence of MnCl2 and calf intestinal phosphatase by malachite green dye based enzyme-coupled colorimetric assay relative to control
Lab book: enter the figure in %, no units written.

Lab note: compound `COc1ccc(/C=C2\C(=O)N(c3ccccc3)N=C2C(N)=O)cc1Br` tested on LgtC (Neisseria meningitidis) (UniProt Q93EK7); recorded inhibition was 39

Bench note, LgtC (Neisseria meningitidis) (UniProt Q93EK7): entry `COc1ccc(/C=C2\C(=O)N(c3ccccc3)N=C2C(F)(F)F)cc1Br` , its inhibition = 84

The reported inhibition value, LgtC (Neisseria meningitidis) (UniProt Q93EK7), for `COc1ccc(/C=C2\C(=O)N(c3ccccc3)N=C2C)cc1Br` reads 43

For `COc1ccc(/C=C2\C(=O)N(c3ccccc3)N=C2C(=O)O)cc1Br` on LgtC (Neisseria meningitidis) (UniProt Q93EK7), measured inhibition was 58

Measured inhibition (LgtC (Neisseria meningitidis) (UniProt Q93EK7)), entry `CCOC(=O)C1=NN(c2ccccc2)C(=O)/C1=C\c1ccc(OC)c(Br)c1` : 66

Record `CCOC(=O)CC1=NN(c2ccccc2)C(=O)/C1=C\c1ccc(OC)c(Br)c1` ; system LgtC (Neisseria meningitidis) (UniProt Q93EK7); inhibition = 67

====

Target: LgtC (Neisseria meningitidis) (UniProt Q93EK7)
Experiment: Inhibition of recombinant Neisseria meningitidis glycosyltransferase LgtC assessed as ratio of Kinact/Ki using UDP-Gal/lactose as substrate preincubated for 20 mins with UDP-Gal followed by lactose addition measured after 20 mins in presence of MnCl2
Please use yes for Ratio under 40 M⁻¹ s⁻¹ and no for everything else, ties included.

Prompt line: Consider `O=C1/C(=C\c2cccc(OCc3ccccc3)c2)C(C(F)(F)F)=NN1c1ccccc1` . Does its Ratio lie strictly below 40 M⁻¹ s⁻¹?
Response line: yes

Prompt line: Find out if reported Ratio for `O=C1/C(=C\c2ccccc2)C(C(F)(F)F)=NN1c1ccccc1` is less than 40 M⁻¹ s⁻¹
Response line: yes

Prompt line: Quick check: does `O=C1/C(=C\c2ccc(Cl)cc2)C(C(F)(F)F)=NN1c1ccccc1` have Ratio under 40 M⁻¹ s⁻¹?
Response line: yes

Prompt line: For this molecule, is Ratio lower than 40 M⁻¹ s⁻¹? `O=C1/C(=C\c2ccc(O)cc2)C(C(F)(F)F)=NN1c1ccccc1`
Response line: no

Prompt line: # strict comparison: is reported Ratio < 40 M⁻¹ s⁻¹? input = `O=C1/C(=C\c2cccc(Cl)c2)C(C(F)(F)F)=NN1c1ccccc1`
Response line: yes

Prompt line: State whether 40 M⁻¹ s⁻¹ exceeds Ratio recorded for `COc1ccc(/C=C2\C(=O)N(c3ccccc3)N=C2C(F)(F)F)cc1Br` .
Response line: no

Prompt line: Strictly below 40 M⁻¹ s⁻¹: is that where Ratio of `O=C1/C(=C\c2ccc(OCc3ccccc3)cc2)C(C(F)(F)F)=NN1c1ccccc1` sits?
Response line: no

Prompt line: Is 40 M⁻¹ s⁻¹ strictly greater than the molecule's reported Ratio? molecule: `COc1ccc(/C=C2\C(=O)N(c3ccccc3)N=C2C(F)(F)F)cc1`
Response line: no
